A collection of compounds and their measured TGI
Test system: SF-295 CNS
Test: NCI tumour cell line growth inhibition, 48 h
Please state the figure in µM; there is no need to write the unit.

COC(=O)C1=C(O)c2cc(OC)c(OC)c(OC)c2C(c2ccc3c(c2)OCO3)[C@@H]1C(=O)OC (stereo not given in full) ... 13.4

Consider the compound shown here: `CN(C)CCN=c1nc2c(c(N)n1-c1ccccc1)c(=S)n(-c1ccccc1)c(=S)n2-c1ccccc1` What is its recorded TGI?
6.37

====

Test system: HCT-116 colon
Assay: NCI tumour cell line growth inhibition, 48 h
measured.property: GI50

Known GI50 results, listed for orientation:
CN(CCOc1ccc(NS(C)(=O)=O)cc1)CCc1ccc(NS(C)(=O)=O)cc1 ... > 100 µM
CCOC(=O)c1sc(NC(=O)COc2ccc(/C=C3\CCc4cc(OC)ccc4C3=O)cc2)nc1C ... 12.9 µM
CSC(=S)NCc1cn(C)c2ccccc12 ... 50.5 µM
CC(C)(O)c1cc(Nc2cc(Oc3cn(C4CC4)nc3C3CCOCC3)ccn2)ccn1 ... 36.2 µM

Consider the compound shown here: `Cc1nc(C(=O)OCc2ccccc2)cc(OCc2ccccc2)c1C` What is its recorded GI50?
13.6 µM

Consider the compound shown here: `COc1ccc(N=c2nc3sc4cc(Cl)ccc4n3c(N)c2C#N)cc1` What is its recorded GI50?
6.5 µM

====

Tested on: SF-268 CNS
Test: NCI tumour cell line growth inhibition, 48 h
measured.property: TGI

COC(OC)c1cccnc1C ... > 100 µM
Cc1cc2ccccc2n2c1nc1ccc(O)cc12 ... > 10 µM
C#CCn1c(I)cc2c(c1=O)COC(=O)[C@]2(O)CC ... > 100 µM

Consider the compound shown here: `Cc1nc(Nc2ccc(Cl)cc2)sc1C(=O)Nc1cccc2c(=O)[nH][nH]c(=O)c12` What is its recorded TGI?
> 100 µM

Consider the compound shown here: CC(=O)N1CCOC12N=NC(C)(C)O2 (stereo not drawn) What is its recorded TGI?
> 100 µM

Consider the compound shown here: COC1CCC(CO)OO1 (stereo not drawn) What is its recorded TGI?
> 100 µM

Consider the compound shown here: CC(Cl)(CCC(Cl)C(C)(C)Cl)C(=O)CBr (stereo not drawn) What is its recorded TGI?
31.7 µM

Consider the compound shown here: Cc1ccc(N2Cc3c(ccc4ccccc34)OP2(=S)N2CCCC2)cc1 (stereo not drawn) What is its recorded TGI?
> 100 µM

Consider the compound shown here: `CCOC(=O)c1cnc2n(c1=O)[C@H]1CCCC[C@@H]1N2` What is its recorded TGI?
> 100 µM

Consider the compound shown here: `Cc1c2oc(=O)c(C#N)cc2c2ccccn12` What is its recorded TGI?
> 100 µM

Consider the compound shown here: `Cc1oc(N)c(S(=O)(=O)/C(C#N)=C/c2ccccc2[N+](=O)[O-])c1C` What is its recorded TGI?
> 100 µM

Consider the compound shown here: CN1C2C=CC(=O)C1C(C#N)C2 (stereo not drawn) What is its recorded TGI?
> 100 µM

Consider the compound shown here: CC1(C)Cc2ccccc2C(C)(Cl)C(=O)N1 (stereo not drawn) What is its recorded TGI?
> 10 µM

====

A collection of molecules and their measured TGI
System: DMS 114 small cell lung
Experiment: NCI tumour cell line growth inhibition, 48 h
Starred links: 1 amine or outer side, 2 acyl side, 3 side chain; linkers in the order of their positions; H or OH if unused. Positions of bridges follow the written chain, without caps; N, C: chain ends. Non-standard residues stand in square brackets, D forms with d. Residues, ends and D or L forms follow the SMILES beside them. *: point of attachment. X3 = CC(C)C(C)C(C(=O)[*:2])N(C)[*:1]; Picolinoyl(3-OH) = O=C(c1ncccc1O)*; NMePhg = CN[CH](C(=O)O)c1ccccc1; Hyp = O=C(O)[CH]1C[CH](O)CN1; Sar = CNCC(=O)O

O=C(C#Cc1ccccc1)NC/C=C/c1ccccc1 ... > 100 µM
O=C1C(=O)N(c2cc(Cl)ccc2Cl)C(=O)C(=O)C1c1nc2ccccc2s1 ... > 100 µM
O=C(Cc1nc2ccccc2s1)C(=O)Nc1cccc(C(F)(F)F)c1 ... > 100 µM
CCOC(=O)NN1C(=O)C(=P(c2ccccc2)(c2ccccc2)c2ccccc2)C(C(=O)OC)=C1C ... > 100 µM
C/C(N=NS(=O)(=O)c1c(C)cc(C)cc1C)=C1\C=CC=CN1O ... > 100 µM
CC(C)CC1NC(=O)C(NC(=O)c2ncccc2O)C(C)OC(=O)C(c2ccccc2)N(C)C(=O)C(C)NC(=O)C(C(C)C(C)C)N(C)C(=O)CN(C)C(=O)C2CC(O)CN2C1=O (centres undefined) ({Picolinoyl(3-OH)}-TL[Hyp][Sar][X3]A[NMePhg]; ester 1-C; configuration not given here) ... > 125 µM

Consider the molecule shown here: `O=C1C=C(NCCc2ccccc2)c2ccccc2C1=O` What is its recorded TGI?
5.81 µM

Consider the molecule shown here: `CCNC(=O)COc1ccc(Cl)c(C)c1` What is its recorded TGI?
> 100 µM

Consider the molecule shown here: `O=Cn1c2ccccc2c2ccccc21` What is its recorded TGI?
> 100 µM
